Study target: T1, 4H2691-bH
T1 chain: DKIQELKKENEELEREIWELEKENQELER
Procedure text: two-hybrid library CCNG1;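 note: natural log of median RNA to DNA barcode read ratio; higher means stronger binding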
Recorded endpoint: interaction score
Field format: numeric only.

DEIQELEKENEELERENWELEKEIQELER [4H145-bH]	-0.291

# binder DENQELEKKIEELKREIWELEKENQELER [4H1347-bH] ; its interaction score = -0.275

Record DKIQELKKENEELEREIWELEKENQELER [4H2691-bH] . Reported interaction score: -0.0571

For DKIQELKKEIEELERKNWELKKENQELER [4H2619-bH] the binder record lists interaction score as 0.304
